Consider the following binders; for each one, report its EC50, HEK-Blue IL18R SEAP reporter.
Molecular target: T1, IL-18R on HEK-Blue IL18R reporter cells (UniProt Q13478 19-541; O95256 20-599)
T1 sequence (looked up) 1: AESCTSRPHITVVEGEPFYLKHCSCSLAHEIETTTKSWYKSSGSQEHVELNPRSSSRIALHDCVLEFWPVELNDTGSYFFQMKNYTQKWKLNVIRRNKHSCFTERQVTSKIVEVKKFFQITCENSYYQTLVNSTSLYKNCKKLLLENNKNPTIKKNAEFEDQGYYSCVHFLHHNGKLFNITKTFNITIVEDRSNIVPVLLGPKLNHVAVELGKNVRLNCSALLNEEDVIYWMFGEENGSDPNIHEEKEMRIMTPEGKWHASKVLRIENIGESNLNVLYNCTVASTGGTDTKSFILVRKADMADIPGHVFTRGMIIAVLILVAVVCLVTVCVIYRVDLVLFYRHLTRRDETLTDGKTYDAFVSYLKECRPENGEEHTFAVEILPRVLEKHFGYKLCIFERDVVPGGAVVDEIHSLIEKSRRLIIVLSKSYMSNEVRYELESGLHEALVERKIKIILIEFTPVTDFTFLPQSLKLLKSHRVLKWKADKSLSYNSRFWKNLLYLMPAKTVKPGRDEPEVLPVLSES
T1 sequence (looked up) 2: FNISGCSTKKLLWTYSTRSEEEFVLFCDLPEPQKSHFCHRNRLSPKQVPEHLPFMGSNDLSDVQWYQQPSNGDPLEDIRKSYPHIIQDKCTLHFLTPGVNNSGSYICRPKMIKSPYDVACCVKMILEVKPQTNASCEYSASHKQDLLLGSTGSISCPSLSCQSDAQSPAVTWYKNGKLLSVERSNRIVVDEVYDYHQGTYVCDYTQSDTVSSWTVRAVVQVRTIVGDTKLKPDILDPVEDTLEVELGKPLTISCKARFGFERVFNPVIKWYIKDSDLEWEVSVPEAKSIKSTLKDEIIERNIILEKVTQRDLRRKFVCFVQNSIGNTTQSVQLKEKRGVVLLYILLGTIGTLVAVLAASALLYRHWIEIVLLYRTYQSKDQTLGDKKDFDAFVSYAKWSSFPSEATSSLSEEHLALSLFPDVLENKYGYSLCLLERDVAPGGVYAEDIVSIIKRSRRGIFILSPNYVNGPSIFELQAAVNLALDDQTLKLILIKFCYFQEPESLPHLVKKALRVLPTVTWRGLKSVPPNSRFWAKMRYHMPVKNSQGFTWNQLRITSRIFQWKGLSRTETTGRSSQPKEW
Assay: cell-based or functional assay
Could you give me the number in pM? Just the number is fine.

input: Which EC50, HEK-Blue IL18R SEAP reporter value is on record for IL-18 polypeptide C149 (ligand) YFGKLESKLSIIRNLNDQVLFIDQGNRPLFADMTDSDARDNAPRTIFIISMYADSQPRGMAVTISVKCEKISTLSAENKIISFKEMNPPDNIKDTKSDIIFFQRSVPGHDNKMQFESSSYEGYFLAAEKERDLFKLILKKEDELGDRSIMFTVQNED ?
output: 6.6

input: Item under review: IL-18 polypeptide C183 (SEQ ID NO: 69) (ligand) YFGKLKSKLSIIRNLNDQVLFIDQGNRPLFEDMTDSDARDNAPRTIFIISGYADSQPRGMAVAISVKCEKISTLSAENKIISFKEMNPPDNIKDTKSDIIFFQRSVPGHDNKMQFESSSYEGYFLAAEKERDLFKLILKKEDELGDRSIMFTVQNED . Reported EC50, HEK-Blue IL18R SEAP reporter?
output: 0.1

input: Which EC50, HEK-Blue IL18R SEAP reporter value belongs to IL-18 polypeptide SEQ ID NO: 56 (E6K, K53A, C38S, C76S, C127S) (ligand) YFGKLKSKLSVIRNLNDQVLFIDQGNRPLFEDMTDSDSRDNAPRTIFIISMYADSQPRGMAVTISVKCEKISTLSSENKIISFKEMNPPDNIKDTKSDIIFFQRSVPGHDNKMQFESSSYEGYFLASEKERDLFKLILKKEDELGDRSIMFTVQNED ?
output: 3.73

input: Which measured EC50, HEK-Blue IL18R SEAP reporter value corresponds to IL-18 polypeptide C151 (ligand) YFGKLESKLSIIRNLNDQVLFIDQGNRPLFEDMTASDARDNAPRTIFIISMYADSQPRGMAVTISVKCEKISTLSAENKIISFKEMNPPDNIKDTKSDIIFFQRSVPGHDNKMQFESSSYEGYFLAAEKERDLFKLILKKEDELGDRSIMFTVQNED ?
output: 13.1

input: # lookup: EC50, HEK-Blue IL18R SEAP reporter of IL-18 polypeptide SEQ ID NO: 59 (E6K, C38A, K53A) (ligand) YFGKLKSKLSVIRNLNDQVLFIDQGNRPLFEDMTDSDARDNAPRTIFIISMYADSQPRGMAVTISVKCEKISTLSCENKIISFKEMNPPDNIKDTKSDIIFFQRSVPGHDNKMQFESSSYEGYFLACEKERDLFKLILKKEDELGDRSIMFTVQNED
output: 0.268

input: Item IL-18 polypeptide C154 (ligand) YFGKLESKLSIIRNLNDQVLFIDQGNRPLFADMTDSAARDNAPRTIFIISMYADSQPRGMAVTISVKCEKISTLSAENKIISFKEMNPPDNIKDTKSDIIFFQRSVPGHDNKMQFESSSYEGYFLAAEKERDLFKLILKKEDELGDRSIMFTVQNED has what recorded EC50, HEK-Blue IL18R SEAP reporter?
output: 11.9

input: // query EC50, HEK-Blue IL18R SEAP reporter value for entry IL-18 polypeptide C148 (ligand) YAGKLESKLSIIRNLNDQVLFIDQGNRPLFEDMTDSDARDNAPRTIFIISMYADSQPRGMAVTISVKCEKISTLSAENKIISFKEMNPPDNIKDTKSDIIFFQRSVPGHDNKMQFESSSYEGYFLAAEKERDLFKLILKKEDELGDRSIMFTVQNED
output: 7.28
